Sourced from the supplement of paper PMC3334620

Target: Cad1 (UniProt P24813)
Sequence: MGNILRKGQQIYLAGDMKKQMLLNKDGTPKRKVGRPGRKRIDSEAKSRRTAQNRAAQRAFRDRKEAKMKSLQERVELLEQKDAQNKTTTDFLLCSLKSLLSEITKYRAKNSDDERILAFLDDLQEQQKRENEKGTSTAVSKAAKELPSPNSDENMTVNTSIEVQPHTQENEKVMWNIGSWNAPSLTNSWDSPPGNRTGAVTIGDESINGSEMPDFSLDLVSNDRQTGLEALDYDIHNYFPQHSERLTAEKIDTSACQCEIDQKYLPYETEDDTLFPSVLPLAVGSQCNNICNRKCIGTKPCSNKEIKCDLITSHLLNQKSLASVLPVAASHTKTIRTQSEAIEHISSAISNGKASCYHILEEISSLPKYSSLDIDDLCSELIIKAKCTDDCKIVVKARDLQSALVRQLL
Assay: PBM E-score (8-mer binding enrichment) (E-score (-0.5 to 0.5)); higher = stronger / more preferred TF binding
Details: protein concentration: 100 nM; construct: GST-full length
Over roughly 33,000 sequences, “E-score (-0.5 to 0.5)” has its median near -0.0014; the highest 2% begin near 0.25. Shown is part of a subset that was picked to be rich in the highest values.
endpoint_label: PBM E-score
Field format: numeric only.

ATTCCCGA -0.241
CGAAATCA 0.306
AATTAGGA 0.0377
GTAATATA 0.327
CATAAATA 0.171
GCCACAGC -0.115
AAAGCCAA -0.0764
AGTCAAGA 0.121
CAAATATG 0.135
GTTTATTA 0.293

// Input: ATTTTCCG . Output its PBM E-score only. 0.304
